System: HL-60
Test: NCI tumour cell line growth inhibition, 48 h
The source made the active and inactive calls. No stated cut-off is given here; in the data, active = GI50 up to about 1.1 µM and inactive = higher.
Assign a class; possible classes are active, inactive

Observe how each entry below is paired with its result.
INSERT INTO results (compound, label_value) VALUES
  ('CCCCSC1=N/C(=C\c2ccc(N(C)C)cc2)C(=O)N1', 'inactive'),
  ('N#Cc1cc(N(CCCl)CCCl)c([N+](=O)[O-])cc1[N+](=O)[O-]', 'inactive'),
  ('c1ccc2c(c1)Nc1nc3nonc3nc1N2', 'inactive'),
  ('Cc1ccc(NC(=O)C2C(=O)N(c3ccc(C)c(C)c3)C(=O)/C2=N\NC(N)=O)cc1C (centres undefined)', 'inactive'),
  ('Nc1nc(Cl)c(/C=N\O)c(NCC2(CO)CC(=O)C2)n1', 'inactive'),
  ('COC(=O)C1CC/C(=N\c2cccc(C(F)(F)F)c2)N1 (centres undefined)', 'inactive'),
  ('COC(=O)C(CC(=O)c1cc2c(cc1I)OCO2)Cc1cc(OC)c(OC)c(OC)c1I (centres undefined)', 'inactive'),
  ('COC1OC(C(C)O)C2OC(C)(C)OC12 (centres undefined)', 'inactive');

For this compound, state the assay outcome: CC1CN(c2ccc(Cl)cc2)CC(C)(C)OC(=O)O1 (centres undefined)
inactive

In this assay, the call recorded for `COc1ccc2c(c1)CC[C@@H]1[C@@H]2CC[C@]2(C)C(=O)/C(=C/c3ccc(O)c(OC)c3)C[C@@H]12` was what?
inactive

Recorded call for `CN(C)C(=O)OC(Cn1cncn1)(Cn1cncn1)c1ccc(Cl)cc1Cl` ?
inactive

Any idea what this test logged for `Cc1ccnc(NC(=S)Nc2ccccc2Cl)c1` ?
inactive

Just curious, what result did COC(=O)[C@]1(C)CCC[C@]2(C)C3CC4OOC3(C=C4C(C)C)CCC21 (some centres undefined) get here?
inactive
